B1: Ribonuclease HI, P0A7Y4 (parent)
chain: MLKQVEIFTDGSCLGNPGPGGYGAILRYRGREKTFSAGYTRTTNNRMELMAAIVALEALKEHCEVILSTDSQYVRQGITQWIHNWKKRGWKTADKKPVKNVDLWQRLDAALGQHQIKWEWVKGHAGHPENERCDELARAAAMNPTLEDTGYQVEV

# Variants of: B1
# Setup Conditions: Escherichia coli (strain K12); pH 5.5; 25 °C; GdnHCl; CD; Sodium acetate 20 mM; reversible: yes; structure 2RN2; whole UniProt chain shown
Measurement Label: denaturant midpoint (higher = more stable)

H62A	1.86 M

denaturant midpoint (higher = more stable) measured on H127A = 1.74 M

Reported denaturant midpoint (higher = more stable) for H83A was 1.83 M

# variant H124A ; its denaturant midpoint (higher = more stable) = 1.82 M
